Organism: Rattus norvegicus
Run Description: Positive allosteric modulation of AMPA receptor in rat embryonic hippocampal neurons assessed as concentration required to double glutamate-induced steady-state current by patch clamp electrophysiology assay
Test Settings: Hippocampus
Metric: CD

Below, 5 compounds whose answers are already recorded.
Compound: O=C1c2cc3c(cc2OCN1CCc1ccccc1F)C(=O)N1CCCC1O3 (stereo unspecified)
CD: 5.4 µM

Compound: O=C1c2cc3c(cc2OCN1CCc1ccccc1)C(=O)N1CCCC1O3 (stereo unspecified)
CD: 0.25 µM

Compound: O=C1c2cc3c(cc2OCN1CCc1ccon1)C(=O)N1CCCC1O3 (stereo unspecified)
CD: 0.4 µM

Compound: CS(=O)(=O)CCN1COc2cc3c(cc2C1=O)OC1CCCN1C3=O (stereo unspecified)
CD: 0.32 µM

Compound: NC(=O)CCN1COc2cc3c(cc2C1=O)OC1CCCN1C3=O (stereo unspecified)
CD: 1.1 µM

For every item in the list below, what is its measured CD?
1. O=C1c2cc3c(cc2OCN1Cc1ccccc1)C(=O)N1CCCC1O3 (stereo unspecified)
2. O=C1c2cc3c(cc2OCN1CCn1nccn1)C(=O)N1CCCC1O3 (stereo unspecified)
3. C[C@@H]1CN2C(=O)c3cc4c(cc3O[C@H]2O1)OCO4

1. 6 µM
2. 0.8 µM
3. 200 µM

Look up CD for the entries below, preserving their order.
1. N#Cc1cccc(CCN2COc3cc4c(cc3C2=O)OC2CCCN2C4=O)c1 (stereo unspecified)
2. O=C1c2cc3c(cc2OCN1CCn1cc(Br)cn1)C(=O)N1CCCC1O3 (stereo unspecified)

1. 0.027 µM
2. 0.02 µM

Dear colleague, could you please provide CD for the compounds listed below?
1. N#Cc1ccnn1CCN1COc2cc3c(cc2C1=O)OC1CCCN1C3=O (stereo unspecified)
2. O=C1c2cc3c(cc2OCN1CCc1ccncc1)C(=O)N1CCCC1O3 (stereo unspecified)
3. CCN1COc2cc3c(cc2C1=O)OC1CCCN1C3=O (stereo unspecified)

0.045 µM
0.24 µM
0.2 µM

Give one value of CD per listed compound.
1. N#Cc1ccn(CCN2COc3cc4c(cc3C2=O)OC2CCCN2C4=O)n1 (stereo unspecified)
2. Cc1nccn1CCN1COc2cc3c(cc2C1=O)OC1CCCN1C3=O (stereo unspecified)

1. 0.1 µM
2. 1.8 µM
